B1: CLCN6 (parent)
chain: FQSISLRKIQFNFPYFRSDRDKRD

Variants of: B1
protocolSummary: protein stability index of a GFP-peptide fusion (GPS, HEK-293T) (PSI 1-6); higher = more stable;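 also: lentivirally expressed fusions sorted by FACS into six bins by GFP to DsRed ratio, PSI derived from sequencing read proportions per bin multiplied by bin number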
testParameters: c terminus: a fixed tail appended
Assign 1 whenever protein stability index does not fall below 2; assign 0 whenever it does.

| var | labelClass |
| --- | --- |
| R7S | 1 |
| P14C | 0 |
| S3P | 1 |
| K22Y | 1 |
| R17K | 0 |
| I4T | 1 |
| R7I | 0 |
| Q2N | 0 |
| P14L | 0 |
| R23P | 1 |
| S5H | 0 |
| D24K | 0 |
| R17G | 0 |
| D19Q | 0 |
| S18T | 1 |
| K8C | 0 |
| S18Q | 0 |
| K22R | 0 |
| F13I | 0 |
| F1R | 1 |
| R23S | 0 |
| N12A | 0 |
| S5I | 0 |
| Q2F | 0 |
| Q2L | 1 |
| I9T | 1 |
| D21F | 1 |
| K8W | 1 |
| F16C | 0 |
| F13P | 0 |
| D21K | 0 |
| R17T | 0 |
| R17F | 0 |
| R20Q | 1 |
| K8M | 1 |
| S5R | 0 |
| S3I | 0 |
| R23N | 0 |
| R20M | 0 |
| Q2D | 1 |
| D24H | 1 |
| D21A | 1 |
| D24M | 0 |
| I4M | 1 |
| F1T | 1 |
| R23G | 1 |
| Q2T | 1 |
| K8I | 1 |
| D21Y | 0 |
| I4P | 1 |
| F13S | 0 |
| S5E | 1 |
| R23W | 0 |
| F11G | 0 |
| D24C | 1 |
| F1Q | 1 |
| S5P | 0 |
| P14I | 0 |
| Q2A | 1 |
